Multiple publications report Kd for Receptor-interacting serine/threonine-protein kinase 3 (Homo sapiens); what follows is a combined list.

Return Kd for the following compound: Cc1cnc(Nc2[nH]nc(-c3ccc(NS(=O)(=O)C(F)F)c(OC4(c5ccc(F)cc5)CC4)c3)c2C(N)=O)cn1
> 30 µM

Return Kd for the following compound: C[C@@H](Oc1cc(NS(=O)(=O)CC(F)(F)F)ccc1-c1n[nH]c(Nc2cnccn2)c1C(N)=O)c1ccc(F)cc1
> 30 µM

Return Kd for the following compound: C[C@H](Oc1cc(-c2nn(C)c3c(-c4cnn5c4CNCC5)cnc(N)c23)ccc1NS(=O)(=O)C(F)F)c1ccc(F)cc1
> 10 µM

Return Kd for the following compound: Cn1nc(-c2ccc(NS(=O)(=O)C(F)F)c(OCc3ccc(Cl)c(F)c3)c2)c2c(N)ncc(-c3cnn(C4CCOCC4)c3)c21
> 10 µM

Return Kd for the following compound: Cn1nc(-c2ccc(NS(=O)(=O)C(F)F)c(OC3(c4ccc(F)cc4)CC3)c2)c2c(N)ncc(-c3cnn(C4CCOCC4)c3)c21
> 10 µM

Return Kd for the following compound: NC(=O)c1c(-c2ccc(NS(=O)(=O)CC(F)(F)F)c(OCc3ccc(F)cc3)c2)n[nH]c1Nc1cnccn1
> 30 µM
